- Test system: HCV replicon 1AY93H
- PROTOCOL DESCRIPTION: microbe, parasite or virus in culture
- Format: cell-based, Hepatitis C virus (HCV)
- RUN CONDITIONS: read-out: 1A Y93H IC50; replicon 1AY93H; Replicon Assay A
RECORDED ENDPOINT: pIC50
Answers are plain numbers, as −log10 of the molar value.

Sample records with pIC50:
CCc1ccc(C2Oc3cc(-c4cnc([C@@H]5CCCN5C(=O)[C@@H](NC(=O)OC)C(C)C)[nH]4)cc(F)c3-c3cc4cc(-c5cnc([C@@H]6C[C@@H](F)CN6C(=O)C(NC(=O)OC)C6CCOC(C)(C)C6)[nH]5)ccc4n32)s1 (single isomer, unassigned) [Compound 261] | 10.37
COC(=O)NC(C(=O)N1CCC[C@H]1c1ncc(-c2cc(F)c3c(c2)OC(c2ccc(C)s2)n2c-3cc3cc(-c4cnc([C@@H]5CCCN5C(=O)[C@@H](NC(=O)OC)C5CCOCC5)[nH]4)ccc32)[nH]1)C(C)(C)F (single isomer, unassigned) | 9.60
CCc1ccc(C2Oc3cc(-c4cnc([C@@H]5CCCN5C(=O)C(NC(=O)OC)C5CCOC(C)(C)C5)[nH]4)cc(F)c3-c3cc4cc(-c5cnc([C@@H]6CCCN6C(=O)[C@@H](NC(=O)OC)C(C)C)[nH]5)ccc4n32)s1 (single isomer, unassigned) [Compound 158] | 8.97

With those in mind, consider the next molecule.
Problem: Find pIC50 for [2H]C(C)(C)C(NC(=O)OC)C(=O)N1CCC[C@H]1c1ncc(-c2cc(F)c3c(c2)OC(c2ccc(C4CC4)s2)n2c-3cc3cc(-c4cnc([C@@H]5CCCN5C(=O)[C@@H](NC(=O)OC)C(C)C)[nH]4)ccc32)[nH]1 (single isomer, unassigned) [Compound 31] on HCV replicon 1AY93H and write it down.
Result: 10.70
